# assayed.system: T1, Cynomolgus Serum Albumin (cynomolgus monkey, UniProt A2V9Z4 25-608)
# T1 construct: ELISA: albumin coated on plates; pull-down: endogenous albumin in cynomolgus serum; also called cSA; Cyno SA
# T1 sequence (A2V9Z4 25-608 limits assumed): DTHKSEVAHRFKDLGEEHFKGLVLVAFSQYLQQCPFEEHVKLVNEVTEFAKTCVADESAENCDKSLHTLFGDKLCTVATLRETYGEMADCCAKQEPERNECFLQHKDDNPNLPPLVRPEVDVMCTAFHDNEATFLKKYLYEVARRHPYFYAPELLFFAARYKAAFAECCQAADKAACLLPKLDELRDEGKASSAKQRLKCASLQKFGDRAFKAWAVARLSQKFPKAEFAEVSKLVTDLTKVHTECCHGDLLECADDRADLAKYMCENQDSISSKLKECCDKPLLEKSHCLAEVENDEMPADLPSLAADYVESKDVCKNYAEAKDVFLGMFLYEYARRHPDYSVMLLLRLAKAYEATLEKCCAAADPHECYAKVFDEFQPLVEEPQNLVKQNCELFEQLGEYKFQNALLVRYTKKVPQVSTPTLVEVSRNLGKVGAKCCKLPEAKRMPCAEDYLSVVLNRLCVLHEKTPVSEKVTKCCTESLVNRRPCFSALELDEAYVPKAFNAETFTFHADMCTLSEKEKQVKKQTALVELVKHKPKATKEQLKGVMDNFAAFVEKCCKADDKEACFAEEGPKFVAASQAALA
# procedure.details: ELISA, 667 nM FN3 protein on immobilized cynomolgus albumin

binder: A10V, R49A (designed binder, Variant of B7; not shown: His tag: FN3 domains were purified as His-tagged proteins) MLPAPKNLVVSRVTEDSARLSWTAPDAAFDSFNIAYWEPGIGGEAIWLAVPGSERSYDLTGLKPGTEYKVWIHGVKGGASSPPLIARFTT
units: RLU
Cyno Albumin (RLU): 1150

binder: A10V, W37A (designed binder, Variant of B7; not shown: His tag: FN3 domains were purified as His-tagged proteins) MLPAPKNLVVSRVTEDSARLSWTAPDAAFDSFNIAYAEPGIGGEAIWLRVPGSERSYDLTGLKPGTEYKVWIHGVKGGASSPPLIARFTT
units: RLU
Cyno Albumin (RLU): 500

binder: B7 (designed binder, FN3 domain (Tencon27-based library clone) expressed in E. coli; also called ALB40; not shown: His tag: FN3 domains were purified as His-tagged proteins) MLPAPKNLVASRVTEDSARLSWTAPDAAFDSFNIAYWEPGIGGEAIWLRVPGSERSYDLTGLKPGTEYKVWIHGVKGGASSPPLIARFTT
units: RLU
Cyno Albumin (RLU): 145000

binder: A10V, W71A (designed binder, Variant of B7; not shown: His tag: FN3 domains were purified as His-tagged proteins) MLPAPKNLVVSRVTEDSARLSWTAPDAAFDSFNIAYWEPGIGGEAIWLRVPGSERSYDLTGLKPGTEYKVAIHGVKGGASSPPLIARFTT
units: RLU
Cyno Albumin (RLU): 1600

binder: A10V, P82A (designed binder, Variant of B7; not shown: His tag: FN3 domains were purified as His-tagged proteins) MLPAPKNLVVSRVTEDSARLSWTAPDAAFDSFNIAYWEPGIGGEAIWLRVPGSERSYDLTGLKPGTEYKVWIHGVKGGASSAPLIARFTT
units: RLU
Cyno Albumin (RLU): 24100

binder: A10V, G40A (designed binder, Variant of B7; not shown: His tag: FN3 domains were purified as His-tagged proteins) MLPAPKNLVVSRVTEDSARLSWTAPDAAFDSFNIAYWEPAIGGEAIWLRVPGSERSYDLTGLKPGTEYKVWIHGVKGGASSPPLIARFTT
units: RLU
Cyno Albumin (RLU): 64400

binder: A10V, A79S (designed binder, Variant of B7; not shown: His tag: FN3 domains were purified as His-tagged proteins) MLPAPKNLVVSRVTEDSARLSWTAPDAAFDSFNIAYWEPGIGGEAIWLRVPGSERSYDLTGLKPGTEYKVWIHGVKGGSSSPPLIARFTT
units: RLU
Cyno Albumin (RLU): 9200

binder: A10V, W47A (designed binder, Variant of B7; not shown: His tag: FN3 domains were purified as His-tagged proteins) MLPAPKNLVVSRVTEDSARLSWTAPDAAFDSFNIAYWEPGIGGEAIALRVPGSERSYDLTGLKPGTEYKVWIHGVKGGASSPPLIARFTT
units: RLU
Cyno Albumin (RLU): 2000

binder: A10V, S80A (designed binder, Variant of B7; not shown: His tag: FN3 domains were purified as His-tagged proteins) MLPAPKNLVVSRVTEDSARLSWTAPDAAFDSFNIAYWEPGIGGEAIWLRVPGSERSYDLTGLKPGTEYKVWIHGVKGGAASPPLIARFTT
units: RLU
Cyno Albumin (RLU): 2950

binder: A10V (designed binder, Variant of B7; also called B7 A10V; not shown: His tag: FN3 domains were purified as His-tagged proteins) MLPAPKNLVVSRVTEDSARLSWTAPDAAFDSFNIAYWEPGIGGEAIWLRVPGSERSYDLTGLKPGTEYKVWIHGVKGGASSPPLIARFTT
units: RLU
Cyno Albumin (RLU): 43600

binder: A10V, A35S (designed binder, Variant of B7; not shown: His tag: FN3 domains were purified as His-tagged proteins) MLPAPKNLVVSRVTEDSARLSWTAPDAAFDSFNISYWEPGIGGEAIWLRVPGSERSYDLTGLKPGTEYKVWIHGVKGGASSPPLIARFTT
units: RLU
Cyno Albumin (RLU): 2950

binder: A10V, I85A (designed binder, Variant of B7; not shown: His tag: FN3 domains were purified as His-tagged proteins) MLPAPKNLVVSRVTEDSARLSWTAPDAAFDSFNIAYWEPGIGGEAIWLRVPGSERSYDLTGLKPGTEYKVWIHGVKGGASSPPLAARFTT
units: RLU
Cyno Albumin (RLU): 2500

binder: A10V, G42A (designed binder, Variant of B7; not shown: His tag: FN3 domains were purified as His-tagged proteins) MLPAPKNLVVSRVTEDSARLSWTAPDAAFDSFNIAYWEPGIAGEAIWLRVPGSERSYDLTGLKPGTEYKVWIHGVKGGASSPPLIARFTT
units: RLU
Cyno Albumin (RLU): 9180

binder: A10V, I41A (designed binder, Variant of B7; not shown: His tag: FN3 domains were purified as His-tagged proteins) MLPAPKNLVVSRVTEDSARLSWTAPDAAFDSFNIAYWEPGAGGEAIWLRVPGSERSYDLTGLKPGTEYKVWIHGVKGGASSPPLIARFTT
units: RLU
Cyno Albumin (RLU): 46200

binder: A10V, R87A (designed binder, Variant of B7; not shown: His tag: FN3 domains were purified as His-tagged proteins) MLPAPKNLVVSRVTEDSARLSWTAPDAAFDSFNIAYWEPGIGGEAIWLRVPGSERSYDLTGLKPGTEYKVWIHGVKGGASSPPLIAAFTT
units: RLU
Cyno Albumin (RLU): 66300

binder: A10V, N33A (designed binder, Variant of B7; not shown: His tag: FN3 domains were purified as His-tagged proteins) MLPAPKNLVVSRVTEDSARLSWTAPDAAFDSFAIAYWEPGIGGEAIWLRVPGSERSYDLTGLKPGTEYKVWIHGVKGGASSPPLIARFTT
units: RLU
Cyno Albumin (RLU): 1500

binder: A10V, H73A (designed binder, Variant of B7; not shown: His tag: FN3 domains were purified as His-tagged proteins) MLPAPKNLVVSRVTEDSARLSWTAPDAAFDSFNIAYWEPGIGGEAIWLRVPGSERSYDLTGLKPGTEYKVWIAGVKGGASSPPLIARFTT
units: RLU
Cyno Albumin (RLU): 600

binder: A10V, K69A (designed binder, Variant of B7; not shown: His tag: FN3 domains were purified as His-tagged proteins) MLPAPKNLVVSRVTEDSARLSWTAPDAAFDSFNIAYWEPGIGGEAIWLRVPGSERSYDLTGLKPGTEYAVWIHGVKGGASSPPLIARFTT
units: RLU
Cyno Albumin (RLU): 42300

binder: A10V, P39A (designed binder, Variant of B7; not shown: His tag: FN3 domains were purified as His-tagged proteins) MLPAPKNLVVSRVTEDSARLSWTAPDAAFDSFNIAYWEAGIGGEAIWLRVPGSERSYDLTGLKPGTEYKVWIHGVKGGASSPPLIARFTT
units: RLU
Cyno Albumin (RLU): 73600

binder: wt Tencon (designed binder, also called wild type tencon) LPAPKNLVVSEVTEDSLRLSWTAPDAAFDSFLIQYQESEKVGEAINLTVPGSERSYDLTGLKPGTEYTVSIYGVKGGHRSNPLSAEFTT
units: RLU
Cyno Albumin (RLU): 775
